TARGET SYSTEM: T1, monovalent human TrkA extracellular region (human, UniProt P04629 33-423)
T1 construct: also called recombinant monovalent human TrkA extracellular domain
T1 sequence (P04629 33-423): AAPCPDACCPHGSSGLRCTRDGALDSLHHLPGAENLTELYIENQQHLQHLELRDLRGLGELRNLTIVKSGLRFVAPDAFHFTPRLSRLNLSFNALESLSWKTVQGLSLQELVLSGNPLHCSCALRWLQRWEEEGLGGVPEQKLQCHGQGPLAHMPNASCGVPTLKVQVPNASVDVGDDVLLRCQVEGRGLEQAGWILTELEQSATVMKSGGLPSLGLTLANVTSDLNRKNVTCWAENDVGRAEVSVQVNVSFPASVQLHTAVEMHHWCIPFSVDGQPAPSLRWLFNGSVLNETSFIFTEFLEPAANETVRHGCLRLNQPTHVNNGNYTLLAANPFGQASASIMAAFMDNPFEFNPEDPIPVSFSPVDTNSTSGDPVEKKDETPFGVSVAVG
RUN DESCRIPTION: SPR (BIAcore 2000), antibody captured via Fc, monovalent TrkA extracellular region as analyte

BINDER	kon
GBR VH3(V37A)VL1 (antibody, human IgG1, kappa, V domains shown, IGHG1, kappa) VH: EVQLLESGGGLVQPGGSLRLSCAASGFTFSTYTMSWARQTPGKRLEWVAYISKGGGSTYYPDTVKGRFTISRDNSKNTLYLQMNSLRAEDTAVYYCAKGAMYGNDFFYPMDYWGQGTTVTVSS VL: EIVLTQSPATLSLSPGERATLSCSASSSVSYMHWYQQKPGQAPRLLIYTTSNLASGIPARFSGSGSGTDFTLTISSLEPEDFAVYYCHQWSSYPWTFGQGTKLEIKR	38200 M⁻¹ s⁻¹
GBR VH3(V37A)VL3 (antibody, human IgG1, kappa, V domains shown, IGHG1, kappa) VH: EVQLLESGGGLVQPGGSLRLSCAASGFTFSTYTMSWARQTPGKRLEWVAYISKGGGSTYYPDTVKGRFTISRDNSKNTLYLQMNSLRAEDTAVYYCAKGAMYGNDFFYPMDYWGQGTTVTVSS VL: QIVLTQSPATLSLSPGERATLSCSASSSVSYMHWYQQKPGQSPRLLIYTTSNLASGIPSRFSGSGSGTFYTLTISSLEPEDFAVYYCHQWSSYPWTFGGGTKLEIKR	31000 M⁻¹ s⁻¹
BXhVH1VL1 (antibody, human IgG1, kappa, V domains shown, IGHG1, kappa) VH: EVQLLESGGGLVQPGGSLRLSCAASGFTFSTYTMSWVRQAPGKGLEWVSYISKGGGSTYYPDTVKGRFTISRDNSKNTLYLQMNSLRAEDTAVYYCAKGAMYGNDFFYPMDYWGQGTTVTVSS VL: EIVLTQSPATLSLSPGERATLSCSASSSVSYMHWYQQKPGQAPRLLIYTTSNLASGIPARFSGSGSGTDFTLTISSLEPEDFAVYYCHQWSSYPWTFGQGTKLEIKR	31300 M⁻¹ s⁻¹
